Listing of entries alongside the reported GFP response relative to DMSO.
assay: LAP4-GFP expression modulators in yeast, confirmation, cell-based, cherry picks, flow cytometry, mother/daughter gates (AID 2271);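 note: ratio of sample to DMSO plate mean so 100% equals DMSO level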; conditions: S. cerevisiae LAP4-GFP strain, 3 h, measured here: mother cell gate response, at 10 µM, stronger effect = higher value, 100 means same as DMSO control
Number only, in %; omit the unit.

item-smiles	reading
O=C(Oc1c(Cl)cc(Cl)c2cccnc12)c1ccco1	199
Cc1cc(O)c(C(=O)/C=C/c2c(F)c(F)c(F)c(F)c2F)c(=O)o1	160

Lookup result for "Cc1cc(N2CCCCC2)n2nc(C)c(-c3ccccc3)c2n1" ; measured GFP response relative to DMSO: 96.2

Lookup result for "CCNC(=O)/C(C#N)=C/c1c(N2CCN(Cc3ccc4c(c3)OCO4)CC2)nc2c(C)cccn2c1=O" ; measured GFP response relative to DMSO: 101

Lookup result for "CC(=O)Nc1ccc(Nc2cc(C)nc3c(-c4ccc(Cl)cc4)c(C)nn23)cc1" ; measured GFP response relative to DMSO: 95.1

----------
test: LAP4-GFP expression modulators in yeast, confirmation, cell-based, cherry picks, flow cytometry, mother/daughter gates (AID 2271);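 note: ratio of sample to DMSO plate mean so 100% equals DMSO level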; settings: S. cerevisiae LAP4-GFP strain, 3 h, at 10 µM, stronger effect = higher value, 100 means same as DMSO control
Listing of entries alongside the reported GFP response relative to DMSO.
Number only, in %; omit the unit.

Record excerpt, results attached:
compound	GFP response relative to DMSO [%]
Cc1noc(/C=C/c2ccccn2)c1[N+](=O)[O-]	139
COc1ccc(Cc2nnc(NC(=O)c3ccccc3F)s2)cc1	101
Cc1nc(C)c(-c2csc(NCCc3ccccc3)n2)s1	112
O=C(NCc1ccncc1)C12CC3CC(CC(Cl)(C3)C1)C2	97
CCOc1ccccc1NC(=O)c1nc(S(=O)(=O)Cc2ccccc2)ncc1Cl	94.1

Lookup result for CN=C(NC)SC1CC(=O)N(c2ccccc2)C1=O (centres undefined) ; measured GFP response relative to DMSO: 99.8

Lookup result for "COc1cc(NC(=O)c2ccc(C)cc2C)ccc1NC(=O)c1cc2ccccc2o1" ; measured GFP response relative to DMSO: 97.7

Lookup result for "CCN(CC)c1ccc2cc(-c3nc4ccccc4[nH]3)c(=O)oc2c1" ; measured GFP response relative to DMSO: 107

Lookup result for "CC(=O)c1cc(NC(=O)c2ccc(C)cc2)c(=O)oc1C" ; measured GFP response relative to DMSO: 105

Lookup result for CCOc1ccc(C(C)=O)cc1N1C(=O)C2C3C=CC(O3)C2C1=O (centres undefined) ; measured GFP response relative to DMSO: 136

Lookup result for "Cc1ccc(/C=C/C(=O)c2ccccc(=O)c2O)c(C)c1" ; measured GFP response relative to DMSO: 152

Lookup result for "COc1ccccc1N=Cc1nc(-c2ccccc2)oc1OC(C)=O" ; measured GFP response relative to DMSO: 103

Lookup result for "CCN(Cc1ccccc1)S(=O)(=O)c1ccc(C(=O)Nc2nnc(C3CC3)o2)cc1" ; measured GFP response relative to DMSO: 106

Lookup result for "COc1ccccc1OCCCc1c(C)n[nH]c1C" ; measured GFP response relative to DMSO: 207

Lookup result for "Cc1ccc(NC(=O)c2nc(S(=O)(=O)Cc3ccccc3)ncc2Cl)cc1" ; measured GFP response relative to DMSO: 141

Lookup result for "COc1ccc(NC(=O)CCN2CCN(S(=O)(=O)c3cc(Cl)ccc3OC)CC2)cc1" ; measured GFP response relative to DMSO: 99.8

Lookup result for "COc1ccc(/C=C2\Sc3ccc(C(=O)N4CCc5ccccc5C4)cc3N(C)C2=O)cc1" ; measured GFP response relative to DMSO: 99.2

Lookup result for "C[n+]1ccc(/C=C/c2c[nH]c3ccccc23)cc1" ; measured GFP response relative to DMSO: 143

Lookup result for CCCc1[nH]nc2c1C(c1ccc(OC)c(Cn3nc(C)c(Br)c3C)c1)C(C#N)=C(N)O2 (centres undefined) ; measured GFP response relative to DMSO: 97.7

----------
experiment: modulators of AGP1-GFP expression in yeast TOR pathway, primary screen, cell-based, multiplex flow cytometry, S. cerevisiae (AID 1887); details: 3 h, at 10 µM, stronger effect = higher value;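 note: AGP1-GFP fusion strain of S. cerevisiae within a five-strain barcoded multiplex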
Records with an inconclusive call do not appear. The source made the active and inactive calls.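 Rule for the calls: active = GFP signal above the screen-wide mean plus 3 SD, that is over about 124.5% of the solvent control; inconclusive = no reading because the compound's own fluorescence disturbed strain identification; inactive = the rest.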 Peptide text beside a SMILES is read from it. * marks the point of attachment. Boc = CC(C)(C)OC(=O)*; OBn = c1ccc(CO*)cc1
value-type: GFP response, % of DMSO

Lookup result for "Cc1cc(C)c2c(CCl)cc(=O)oc2c1" ; measured GFP response, % of DMSO: 115% (inactive)

Lookup result for C#CCN1C(=O)C(O)(CC(=O)c2ccc(OC)c(OC)c2)c2ccccc21 (stereo not drawn) ; measured GFP response, % of DMSO: 97.6% (inactive)

Lookup result for CC1COc2c(N3CCN(C)CC3)c(F)cc3c(=O)c(C(=O)O)cn1c23 (stereo not drawn) ; measured GFP response, % of DMSO: 90.8% (inactive)

Lookup result for CC1(C)S[C@@H]2[C@H](NC(=O)C(C(=O)O)c3ccccc3)C(=O)N2[C@H]1C(=O)O (stereo partly drawn) ; measured GFP response, % of DMSO: 98.5% (inactive)

Lookup result for "O=C1C=CC(=O)C(C2=C3C(=O)N(CCc4ccccc4)CC(=O)N3CCC2)=C1" ; measured GFP response, % of DMSO: 104% (inactive)

Lookup result for "COC(=O)CN1CC(=O)N(c2ccccc2)C1=S" ; measured GFP response, % of DMSO: 95.8% (inactive)

Lookup result for "C[C@@H]1C[C@H]2[C@@H]3CCC4=CC(=O)C=C[C@]4(C)[C@@]3(F)[C@@H](O)C[C@]2(C)[C@H]1C(=O)CO" ; measured GFP response, % of DMSO: 96.6% (inactive)

Lookup result for CC(C)CC(NC(=O)C(NC(=O)OC(C)(C)C)C(C)C)C(=O)NC(CCC(=O)OCc1ccccc1)C(N)=O (stereo not drawn) (Boc-Val-Leu-Glu(OBn)-NH2; configuration not given here) ; measured GFP response, % of DMSO: 93.1% (inactive)

Lookup result for "Cc1ccccc1-c1coc2cc(O)ccc2c1=O" ; measured GFP response, % of DMSO: 97.3% (inactive)

Lookup result for "C[C@]12CC[C@H]3C(=CCc4cc(O)ccc43)[C@@H]1CCC2=O" ; measured GFP response, % of DMSO: 92.1% (inactive)

Lookup result for C[N+]12CCC(CC1)C(OC(=O)C(O)(c1ccccc1)c1ccccc1)C2 (stereo not drawn) ; measured GFP response, % of DMSO: 95.8% (inactive)

----------
assay: modulators of CIT2-GFP expression in yeast, confirmation, S. cerevisiae, GFP fusion, cherry picks, mother/daughter gates (AID 2274); settings: S. cerevisiae CIT2-GFP strain, flow cytometry, 3 h; measured here: mother cell gate; at 10 µM; stronger effect = higher value
Listing of entries alongside the reported GFP response, % of DMSO.
Show the value, then the unit it is measured in.

Record excerpt, results attached:
compound	GFP response, % of DMSO
CC1CCCCN1S(=O)(=O)c1ccc(C(=O)Nc2nnc(-c3ccccc3Cl)o2)cc1 (centres undefined)	98.5%
Cc1sc(NC(=O)c2cccs2)nc1-c1ccccc1	95.6%
Cc1cc(=O)n2c3c(sc2n1)C(=O)N(Cc1ccccc1)C3=O	74.8%

Lookup result for "CNC(=O)/C(C#N)=C/c1c(N2CCCCCC2)nc2ccccn2c1=O" ; measured GFP response, % of DMSO: 108%

----------
experiment: modulators of CIT2-GFP expression in yeast, confirmation, S. cerevisiae, GFP fusion, cherry picks, mother/daughter gates (AID 2274); settings: S. cerevisiae CIT2-GFP strain, flow cytometry, 3 h; measured here: daughter cell gate; at 10 µM; stronger effect = higher value
value-type: GFP response, % of DMSO (%)
Number only, in %; omit the unit.

compound	value-type	reading
COC(=O)c1ccc2nc(Nc3nc4ccc(F)cc4s3)sc2c1	GFP response, % of DMSO	105
O=C(OCCOc1ccccc1)c1n[nH]c2ccccc12	GFP response, % of DMSO	104
O=C(Nc1ccccc1C(F)(F)F)c1cc(-c2ccc(O)cc2)on1	GFP response, % of DMSO	98.3

Lookup result for "O=C(Oc1oc(-c2ccco2)nc1C=Nc1ccccc1)c1ccoc1" ; measured GFP response, % of DMSO: 103

Lookup result for "CCOc1ccc(-c2noc(-c3ccncc3)n2)cc1OCC" ; measured GFP response, % of DMSO: 103

Lookup result for "S=C(Sc1ccc(Cl)cc1)Sc1ccc(Cl)cc1" ; measured GFP response, % of DMSO: 105

Lookup result for COc1ccc(C2CC(c3c(-c4ccccc4)c4cc(Cl)ccc4[nH]c3=O)=NN2S(C)(=O)=O)cc1 (stereo not given) ; measured GFP response, % of DMSO: 101

Lookup result for CCCc1[nH]nc2c1C(c1cccc(OC(=O)c3ccco3)c1)C(C#N)=C(N)O2 (stereo not given) ; measured GFP response, % of DMSO: 103

Lookup result for "Clc1ccc(N=c2ssnc2Cl)cc1" ; measured GFP response, % of DMSO: 105

Lookup result for "CCc1nn2c(N3CCOCC3)cc(C)nc2c1-c1ccc(F)cc1" ; measured GFP response, % of DMSO: 101

Lookup result for "O=C(CSc1ccc(-c2ccccn2)nn1)N1CCCCC1" ; measured GFP response, % of DMSO: 100
